# TARGET_ENTITY: human GPR120 (Homo sapiens, UniProt Q5NUL3)
# Construct: host or cells: HEK293 cells co-expressing Gqi5
# Sequence (Q5NUL3 whole entry): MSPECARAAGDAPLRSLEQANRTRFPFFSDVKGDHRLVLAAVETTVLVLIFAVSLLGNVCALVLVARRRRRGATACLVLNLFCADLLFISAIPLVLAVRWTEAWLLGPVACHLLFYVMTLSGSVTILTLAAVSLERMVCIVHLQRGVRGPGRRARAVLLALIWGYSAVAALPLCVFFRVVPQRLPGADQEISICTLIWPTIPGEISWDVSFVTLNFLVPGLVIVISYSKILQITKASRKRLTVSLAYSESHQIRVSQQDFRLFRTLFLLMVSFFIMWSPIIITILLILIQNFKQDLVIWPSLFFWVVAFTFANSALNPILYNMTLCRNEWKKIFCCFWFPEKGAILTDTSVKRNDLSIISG
# TEST_DETAILS: Intracellular Ca2+ assay in human GPR120 stable cell line (HEK293 co-expressing Gqi5), Flexstation
# Type: cell-based
# ASSAY_SETUP: % activity at 5 μM compared to the maximal activity of GW9508 at 6.7 μM (=100%); human GPR120 cells, Ca2+ fluorescence
RECORDED_ENDPOINT: % Activity (GW9508 Reference Compound) (%)

The examples below pair each entry with its known result.
{"columns": ["COMPOUND", "% Activity (GW9508 Reference Compound) / %"],
 "data": [
  ["CC1(C)Cc2cc(F)cc(COc3ccc4c(c3)CC[C@H]4CC(=O)O)c2O1 [Example 175]", 152.44],
  ["Cc1cc(CCC(=O)O)c(C)c(C)c1OCc1cc(F)cc2c1OC(C)(C)C2 [Example 254]", 146.14]
]}

(I) CC(Cc1ccc(OCc2ccc(F)c3c2OC(C)(C)C3)c(F)c1)C(=O)O (centres unmarked) [Example 29]
(II) CC(Cc1cc(F)c(OCc2cc(Cl)cc3c2OC(C)(C)C3)c(F)c1)C(=O)O (centres unmarked) [Example 38]
Hello, I am sorting some records. Could you say if I or II has the smaller % Activity (GW9508 Reference Compound) value? Bench note: the answer is the label of the chosen record.
II

(1) CC1(C)Cc2cc(F)cc(COc3c(F)cc(CC4CC4C(=O)O)cc3F)c2O1 (single isomer, unassigned) [Example 184A]
(2) CC(Cc1ccc(OCc2ccc(F)c3c2OC(C)(C)C3)cc1)C(=O)O (centres unmarked) [Example 30]
(3) CC(Cc1cc(F)c(OCc2cc(OCc3ccccc3)cc3c2OC(C)(C)C3)c(F)c1)C(=O)O (centres unmarked) [Example 111]
Highest % Activity (GW9508 Reference Compound) first, then in falling order down to the smallest. Note for the reader: the ranking is given by listing the labels in the order requested.
2, 1, 3
(2: 176.6%, 1: 95.58%, 3: 51.55%)
